Just for reference, the supplement of paper PMC11246515 is where these values come from.

Could you please report measured total protein half-life in vivo for the items listed next?
assay: total protein half-life in vivo (active degradation + dilution); higher = more stable protein; details: wild type E. coli NCM3722; growth: C-lim chemostat; doubling time 12 h
Provide only the numeric value, understood in h.

// MDKQSLHETAKRLALELPFVELCWPFGPEFDVFKIGGKIFMLSSELRGVPFINLKSDPQKSLLNQQIYPSIKPGYHMNKKHWISVYPGEEISEALLRDLINDSWNLVVDGLAKRDQKRVRPG [P0AAT2] : total protein half-life in vivo value = 11.2

// MERNKLARQIIDTCLEMTRLGLNQGTAGNVSVRYQDGMLITPTGIPYEKLTESHIVFIDGNGKHEEGKLPSSEWRFHMAAYQSRPDANAVVHNHAVHCTAVSILNRSIPAIHYMIAAAGGNSIPCAPYATFGTRELSEHVALALKNRKATLLQHHGLIACEVNLEKALWLAHEVEVLAQLYLTTLAITDPVPVLSDEEIAVVLEKFKTYGLRIEE [P0AB87] : total protein half-life in vivo value = 7.71

// "MDKSKRHLAWWVVGLLAVAAIVAWWLLRPAGVPEGFAVSNGRIEATEVDIASKIAGRIDTILVKEGKFVREGEVLAKMDTRVLQEQRLEAIAQIKEAQSAVAAAQALLEQRQSETRAAQSLVNQRQAELDSVAKRHTRSRSLAQRGAISAQQLDDDRAAAESARAALESAKAQVSASKAAIEAARTNIIQAQTRVEAAQATERRIAADIDDSELKAPRDGRVQYRVAEPGEVLAAGGRVLNMVDLSDVYMTFFLPTEQAGTLKLGGEARLILDAAPDLRIPATISFVASVAQFTPKTVETSDERLKLMFRVKARIPPELLQQHLEYVKTGLPGVAWVRVNEELPWPDDLVVRLPQ" : total protein half-life in vivo value = 13
